The origin of these recorded values is PubChem BioAssay (NCI).

Tested on: SF-295 CNS
PROCEDURE TEXT: NCI tumour cell line growth inhibition, 48 h; in the data active means GI50 below about 0.43 µM; inactive means the rest
Labels: t for active, f for inactive

compound=COc1cc(OC)c(/C=C/S(=O)(=O)Cc2ccc(OC)c(N)n2)c(OC)c1 answer_label=t
compound="COc1cc2c(cc1O)CCN[C@@]21CS[C@H]2c3c(OC(C)=O)c(C)c4c(c3C(COC1=O)N1C2C2NC(Cc3cc(C)c(OC)c(O)c32)[C@@H]1O)OCO4 (stereo not given in full)" answer_label=f
compound=OC[C@H]1C[C@](O)(c2ccccc2Cl)[C@@H](c2ccccc2Cl)O1 answer_label=f
compound=ClC/C=C/CSc1ncnc2nc[nH]c12 answer_label=f
compound=O=C(O)CN(CCN(CC(=O)O)CC(=O)O)CC(=O)O.[Cu+2].[Na+] answer_label=f
